Tested on: 454973-116-R2-J3-PDC complex spheroid viability
Assay: Anticancer human tumor 454973-116-R2-J3-PDC patient-derived pancreatic carcinoma cell line growth inhibition [POLQ]
Details: second compound 3.16 µM; first compound 0.00316 µM; active compounds read low
Measurement Name: viability, T/C (%)
Number in %, nothing else.

Field: example entries. Status: answers known.
Compound: COc1cccc(OCCCN)c1-c1cc(Nc2cnc(C#N)cn2)n[nH]1 + COC1C(OC(N)=O)C(O)C(Oc2ccc3c(O)c(NC(=O)c4ccc(O)c(CC=C(C)C)c4)c(=O)oc3c2C)OC1(C)C
Quantity Unit: %
Measurement: 107
//
Compound: CC[C@@]1(O)C(=O)OCc2c1cc1n(c2=O)Cc2cc3c(CN(C)C)c(O)ccc3nc2-1 + Nc1ccc(C#CCN(C(=O)Cc2ncc(C(F)(F)F)cc2C(F)(F)F)c2ccc(F)cc2)nn1
Quantity Unit: %
Measurement: 98.7
//
Compound: CCc1c2c(nc3ccc(O)cc13)-c1cc3c(c(=O)n1C2)COC(=O)[C@]3(O)CC + Cc1cccc(N(C)C(=O)C2C(O)CCN2c2nc(C)cc(C(F)(F)F)c2C#N)c1
Quantity Unit: %
Measurement: 33.6
//
Compound: CCc1c2c(nc3ccc(O)cc13)-c1cc3c(c(=O)n1C2)COC(=O)[C@]3(O)CC + Nc1ccc(C#CCN(C(=O)Cc2ncc(C(F)(F)F)cc2C(F)(F)F)c2ccc(F)cc2)nn1
Quantity Unit: %
Measurement: 18.6

Proceed to the following item.
Quick note, viability, T/C for Cn1ncnc1[C@H]1c2n[nH]c(=O)c3cc(F)cc(c23)N[C@@H]1c1ccc(F)cc1 + Cc1cccc(N(C)C(=O)C2C(O)CCN2c2nc(C)cc(C(F)(F)F)c2C#N)c1 landed at 103

====

Tested on: 454973-116-R2-J3-PDC complex spheroid viability
Experiment: Anticancer human tumor 454973-116-R2-J3-PDC cell line growth inhibition [POLQ];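 further: spheroids exposed to drugs for seven days before measurement; percent viability relative to DMSO vehicle control wells taken as 100%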
Settings: second compound 10 µM; first compound 0.001 µM; active compounds read low
Parameter: viability, T/C. Scope: all listed entries.
Number in %, nothing else.

Field: example entries. Status: answers known.
Compound: Cn1ncnc1[C@H]1c2n[nH]c(=O)c3cc(F)cc(c23)N[C@@H]1c1ccc(F)cc1 + Nc1ccc(C#CCN(C(=O)Cc2ncc(C(F)(F)F)cc2C(F)(F)F)c2ccc(F)cc2)nn1
Quantity Unit: %
viability, T/C: 109

Compound: Cn1ncnc1[C@H]1c2n[nH]c(=O)c3cc(F)cc(c23)N[C@@H]1c1ccc(F)cc1 + COC1C(OC(N)=O)C(O)C(Oc2ccc3c(O)c(NC(=O)c4ccc(O)c(CC=C(C)C)c4)c(=O)oc3c2C)OC1(C)C
Quantity Unit: %
viability, T/C: 96

Compound: Cn1ncnc1[C@H]1c2n[nH]c(=O)c3cc(F)cc(c23)N[C@@H]1c1ccc(F)cc1 + Cc1cccc(N(C)C(=O)C2C(O)CCN2c2nc(C)cc(C(F)(F)F)c2C#N)c1
Quantity Unit: %
viability, T/C: 96

Compound: CC[C@@]1(O)C(=O)OCc2c1cc1n(c2=O)Cc2cc3c(CN(C)C)c(O)ccc3nc2-1 + COC1C(OC(N)=O)C(O)C(Oc2ccc3c(O)c(NC(=O)c4ccc(O)c(CC=C(C)C)c4)c(=O)oc3c2C)OC1(C)C
Quantity Unit: %
viability, T/C: 104

Quick note, viability, T/C for CC[C@@]1(O)C(=O)OCc2c1cc1n(c2=O)Cc2cc3c(CN(C)C)c(O)ccc3nc2-1 + Nc1ccc(C#CCN(C(=O)Cc2ncc(C(F)(F)F)cc2C(F)(F)F)c2ccc(F)cc2)nn1 landed at 110

Quick note, viability, T/C for CC[C@@]1(O)C(=O)OCc2c1cc1n(c2=O)Cc2cc3c(CN(C)C)c(O)ccc3nc2-1 + Cc1cccc(N(C)C(=O)C2C(O)CCN2c2nc(C)cc(C(F)(F)F)c2C#N)c1 landed at 96.6

====

Tested on: 454973-116-R2-J3-PDC complex spheroid viability
Test: Anticancer human tumor 454973-116-R2-J3-PDC cell line growth inhibition [POLQ]; active = viability on the fitted dose curve at most 10% of control; inactive = the rest;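 further: spheroids exposed to drugs for seven days before measurement; percent viability relative to DMSO vehicle control wells taken as 100%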
Conditions: second compound 1 µM; first compound 3.16 µM
// one of active, inactive, no free text

Look over these answered cases.
Compound: CCc1cc2c(N3CCc4c(cc(Cn5ccnc5)cc4-c4cn(C)nc4C(F)(F)F)C3=O)ccnc2c(OC)n1 + COC1C(OC(N)=O)C(O)C(Oc2ccc3c(O)c(NC(=O)c4ccc(O)c(CC=C(C)C)c4)c(=O)oc3c2C)OC1(C)C
Class Name: inactive
//
Compound: CCCS(=O)(=O)Nc1ccc(F)c(C(=O)c2c[nH]c3ncc(-c4ccc(Cl)cc4)cc23)c1F + COC1C(OC(N)=O)C(O)C(Oc2ccc3c(O)c(NC(=O)c4ccc(O)c(CC=C(C)C)c4)c(=O)oc3c2C)OC1(C)C
Class Name: inactive
//
Compound: C#Cc1c(F)ccc2cc(O)cc(-c3ncc4c(N5CC6CCC(C5)N6)nc(OCC56CCCN5CC(F)C6)nc4c3F)c12 (stereo not given) + Nc1ccc(C#CCN(C(=O)Cc2ncc(C(F)(F)F)cc2C(F)(F)F)c2ccc(F)cc2)nn1
Class Name: inactive

Tell me the recorded outcome of this test for COc1cccc2c1C(=O)c1c(O)c3c(c(O)c1C2=O)CC(O)(C(=O)CO)CC3OC1CC(N)C(O)C(C)O1 (stereo not given) + Cc1cccc(N(C)C(=O)C2C(O)CCN2c2nc(C)cc(C(F)(F)F)c2C#N)c1 .
active

Tell me the recorded outcome of this test for CCc1cc2c(N3CCc4c(cc(Cn5ccnc5)cc4-c4cn(C)nc4C(F)(F)F)C3=O)cc(C)nc2c(OC)n1 + Nc1ccc(C#CCN(C(=O)Cc2ncc(C(F)(F)F)cc2C(F)(F)F)c2ccc(F)cc2)nn1 .
inactive

Tell me the recorded outcome of this test for CCCS(=O)(=O)Nc1ccc(F)c(C(=O)c2c[nH]c3ncc(-c4ccc(Cl)cc4)cc23)c1F + Nc1ccc(C#CCN(C(=O)Cc2ncc(C(F)(F)F)cc2C(F)(F)F)c2ccc(F)cc2)nn1 .
inactive

Tell me the recorded outcome of this test for COc1cccc2c1C(=O)c1c(O)c3c(c(O)c1C2=O)CC(O)(C(=O)CO)CC3OC1CC(N)C(O)C(C)O1 (stereo not given) + Nc1ccc(C#CCN(C(=O)Cc2ncc(C(F)(F)F)cc2C(F)(F)F)c2ccc(F)cc2)nn1 .
active

Tell me the recorded outcome of this test for O=c1[nH]cc(F)c(=O)[nH]1 + COC1C(OC(N)=O)C(O)C(Oc2ccc3c(O)c(NC(=O)c4ccc(O)c(CC=C(C)C)c4)c(=O)oc3c2C)OC1(C)C .
inactive

Tell me the recorded outcome of this test for CC1COCCN1c1cc(C2(O)CC3CCC(C2)O3)c2cnn(-c3ccn[nH]3)c2n1 (stereo not given) + Cc1cccc(N(C)C(=O)C2C(O)CCN2c2nc(C)cc(C(F)(F)F)c2C#N)c1 .
inactive

Tell me the recorded outcome of this test for CC1COCCN1c1cc(-c2ccnn2C)c2ccnc(-c3ccn[nH]3)c2n1 (stereo not given) + COC1C(OC(N)=O)C(O)C(Oc2ccc3c(O)c(NC(=O)c4ccc(O)c(CC=C(C)C)c4)c(=O)oc3c2C)OC1(C)C .
inactive

====

System: 454973-116-R2-J3-PDC complex spheroid viability
Assay: Anticancer human tumor 454973-116-R2-J3-PDC cell line growth inhibition [POLQ];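 further: spheroids exposed to drugs for seven days before measurement; percent viability relative to DMSO vehicle control wells taken as 100%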
Conditions: second compound 3.16 µM; first compound 0.316 µM; active compounds read low
Parameter: viability, T/C. Scope: all listed entries.

Field: example entries. Status: answers known.
Compound: COc1cc(C2c3cc4c(cc3C(OC3OC5COC(C)OC5C(O)C3O)C3COC(=O)C23)OCO4)cc(OC)c1O (configuration not stated) + Nc1ccc(C#CCN(C(=O)Cc2ncc(C(F)(F)F)cc2C(F)(F)F)c2ccc(F)cc2)nn1
Target Or System: 454973-116-R2-J3-PDC complex spheroid viability
viability, T/C: 80.3%
//
Compound: Nc1ccn(C2OC(CO)C(O)C2(F)F)c(=O)n1 (configuration not stated) + Cc1cccc(N(C)C(=O)C2C(O)CCN2c2nc(C)cc(C(F)(F)F)c2C#N)c1
Target Or System: 454973-116-R2-J3-PDC complex spheroid viability
viability, T/C: 14.8%
//
Compound: CCc1c2c(nc3ccc(O)cc13)-c1cc3c(c(=O)n1C2)COC(=O)[C@]3(O)CC + Nc1ccc(C#CCN(C(=O)Cc2ncc(C(F)(F)F)cc2C(F)(F)F)c2ccc(F)cc2)nn1
Target Or System: 454973-116-R2-J3-PDC complex spheroid viability
viability, T/C: 2.05%
//
Compound: CC1COCCN1c1cc(C2(O)CC3CCC(C2)O3)c2cnn(-c3ccn[nH]3)c2n1 (configuration not stated) + Nc1ccc(C#CCN(C(=O)Cc2ncc(C(F)(F)F)cc2C(F)(F)F)c2ccc(F)cc2)nn1
Target Or System: 454973-116-R2-J3-PDC complex spheroid viability
viability, T/C: 20.9%

Quick note, viability, T/C for C=CCn1c(=O)c2cnc(Nc3ccc(N4CCN(C)CC4)cc3)nc2n1-c1cccc(C(C)(C)O)n1 + Cc1cccc(N(C)C(=O)C2C(O)CCN2c2nc(C)cc(C(F)(F)F)c2C#N)c1 landed at 72.8%
